Recorded values, source ChEMBL document CHEMBL1131556.

Item-by-item account of pKi
Target: Prothrombin (Homo sapiens, UniProt P00734)
pKi: −log10 of the molar value.
parameter_measured: pKi

sample_smiles=CCN(CC)C[C@H](Cc1ccccc1)Nc1ccncc1S(=O)(=O)N[C@@H](Cc1ccc(N)cc1)C(=O)N1CCC(CCF)CC1 result=7.35
sample_smiles=CC(=O)N1CCN(C[C@H](Cc2ccccc2)Nc2ccncc2S(=O)(=O)N[C@@H](Cc2ccc(N)cc2)C(=O)N2CCC(CCF)CC2)CC1 result=7.62
sample_smiles=Nc1ccc(C[C@H](NS(=O)(=O)c2cnccc2N[C@@H](Cc2ccccc2)CN2CCOCC2)C(=O)N2CCC(CCF)CC2)cc1 result=7.66
sample_smiles=Nc1ccc(C[C@H](NS(=O)(=O)c2cnccc2N[C@H](CO)CC2CCCCC2)C(=O)N2CCC(CCF)CC2)cc1 result=7.74
sample_smiles=COCCN(CCOC)C[C@H](Cc1ccccc1)Nc1ccncc1S(=O)(=O)N[C@@H](Cc1ccc(N)cc1)C(=O)N1CCC(CCF)CC1 result=7.72
sample_smiles=CCNC[C@H](Cc1ccccc1)Nc1ccncc1S(=O)(=O)N[C@@H](Cc1ccc(N)cc1)C(=O)N1CCC(CCF)CC1 result=7.00
sample_smiles=CCC1CCN(C(=O)[C@H](Cc2ccc(N)cc2)NS(=O)(=O)c2cnccc2N[C@H](CO)Cc2ccccc2)CC1 result=6.96
